composite z-score: recorded values
- target: Follistatin (Homo sapiens)
- experiment-summary: follistatin binders on small-molecule microarrays, primary screen, biochemical, small-molecule microarray, 635/667 nm fluorescence (AID 1132)
- conditions: FST binding, 635 nm fluorescence, higher = more signal
The answer should be a number; do not append a unit.

Before answering, review these 2 worked examples.
molecule=C=CCOC(=O)[C@H]1[C@@H]2C(=O)O[C@@H](c3ccccc3)[C@@H](c3ccccc3)N2[C@@H](c2ccc(OCCOC(=O)[C@@H]3C[C@@H]4C(=O)N[C@@H](CCCCNC(C)=O)C(=O)N4[C@@H]3c3ccc(O)cc3)cc2)[C@]12C(=O)Nc1ccc(I)cc12 assay_value=1.32
molecule="[N-]=[N+]=NCc1ccccc1[C@@H]1OC(c2ccc(OCCCO)cc2)=N[C@]1(CCS(=O)(=O)c1ccccc1)C(=O)NCC(O)CO (stereo not given in full)" assay_value=1.29

Sample `O=C(NCc1ccccc1)[C@@H]1c2ccccc2C(=O)N(Cc2ccccc2C(F)(F)F)[C@H]1c1ccc(CO)cc1` — what was its composite z-score? 0.592

Input OCC1CC(c2ccccc2)=NO1 (stereo not given) 0.5

// query: CC(c1ccccc1)C(O)C1C=CC2C(=O)N(c3ccccc3)C(=O)C2N1Nc1ccc([N+](=O)[O-])cc1 (stereo not given) 1.03

// query: `O=C1O[C@H](c2ccccc2)[C@H](c2ccccc2)N2[C@H]1[C@@H](C(=O)Nc1nc3ccccc3s1)[C@]1(C(=O)Nc3ccc(C#CC4(O)CCCCCC4)cc31)[C@H]2c1ccccc1OCCO` 1.3

For `CCCNC(=O)[C@@H]1c2ccccc2C(=O)N(C(C)C)[C@H]1c1ccc(CO)cc1` then? -0.577

Would you mind doing `O=c1n(-c2ccccc2)c(=O)n2n1CC(COc1ccccc1)=C([C@H](O)CCc1ccccc1)[C@@H]2CO` as well? 0.415

Same question, `CC(C)(C)OC(=O)CC[C@]1(C(=O)NCc2ccccc2)N=C(c2ccc(OCCCO)cc2)O[C@H]1c1ccccc1CN=[N+]=[N-]` this time 1.48

Do the same for `C=C[C@@H](OC)[C@H](OC(=O)Nc1ccc(SC)cc1)c1ccc(O)c(F)c1` please 1.11
